These data points were gathered from PubChem BioAssay (EPA / NIEHS).

Experiment notes: BSK_4H_Eotaxin3: BioMAP Diversity Plus: 4H Assay for Eotaxin 3 Biomarker Activity (AID 2283000);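 as to Outcome: CCL26 protein level quantified by ELISA in parallel with SRB cytotoxicity check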
Condition description: primary human endothelial cells (HUVEC); actives raise or lower the signal
Activity calls are given as the source filed them. The calls were made as follows: active = hit-call score of the fitted dose curve at least 0.9, where 1 is the maximum; inactive = score below 0.9.
Outcome codes: active, inactive

# Compound, Label
records = [
    ("Oc1c(Br)cc(Br)cc1Br", "inactive"),
    ("Clc1cccc(Cl)c1", "inactive"),
    ("C[C@]12CC[C@@H](O)C[C@@H]1CC[C@@H]1[C@@H]2CC[C@]2(C)C(=O)CC[C@@H]12", "inactive"),
    ("Oc1c(Cl)cc(Cl)cc1Cl", "inactive"),
    ("CCOC(=O)CCN(SN(C)C(=O)Oc1cccc2c1OC(C)(C)C2)C(C)C", "active"),
    ("O=C1C=CC(=O)c2ccccc21", "active"),
    ("CC(C=O)Cc1ccc2c(c1)OCO2 (configuration not stated)", "inactive"),
    ("CCOC(=O)C(SP(=S)(OC)OC)c1ccccc1 (configuration not stated)", "active"),
    ("Clc1cccc(Cl)c1Cl", "inactive"),
    ("CCOP(=S)(OCC)SCS(=O)(=O)C(C)(C)C", "inactive"),
    ("[Cl][Sn]([c]1ccccc1)([c]1ccccc1)[c]1ccccc1", "active"),
    ("Cc1cc(Cl)ccc1N", "inactive"),
    ("Oc1ccc(Cc2ccc(O)cc2)cc1", "inactive"),
    ("CC(C)N(C(=O)CCl)c1ccccc1", "active"),
    ("CCOP(=O)(OCC)SCCSCC", "inactive"),
    ("CC(C)O.CC(C)O.OCCN(CCO)CCO.OCCN(CCO)CCO.[Ti]", "inactive"),
    ("C=CC(Cl)CCl (configuration not stated)", "inactive"),
    ("Cc1cc(C(C)(C)c2ccc(O)c(C)c2)ccc1O", "inactive"),
    ("OC(Cc1ccccc1Cl)(Cn1[nH]cnc1=S)C1(Cl)CC1 (configuration not stated)", "active"),
    ("Cc1ccccc1OP(=O)(Oc1ccccc1C)Oc1ccccc1C", "active"),
    ("O=c1oc2ccccc2c(O)c1C(CC(O)c1ccc(-c2ccc(Br)cc2)cc1)c1ccccc1 (configuration not stated)", "active"),
    ("N#Cc1cccnc1", "inactive"),
    ("O=C(O)C1(c2ccc3c(c2)OC[C@H](Cc2ccc(-c4ccccc4)cc2)[C@H]3O)CCCC1", "inactive"),
    ("O=C(O)COc1cc(Cl)c(Cl)cc1Cl", "inactive"),
    ("N#CCCC(Br)(C#N)CBr (configuration not stated)", "active"),
    ("CCOP(=O)(OCC)OC(=CCl)c1ccc(Cl)cc1Cl", "active"),
    ("Nc1c(Oc2ccccc2)cc(O)c2c1C(=O)c1ccccc1C2=O", "active"),
]

----------
Read-out: Collagen III, COL3A1 (gene 1281)
Experiment notes: BSK_hDFCGF_CollagenIII: BioMAP Diversity Plus: hDFCGF Assay for Collagen III Biomarker Activity (AID 2283056)
Condition description: primary human foreskin fibroblasts; actives raise or lower the signal
Active and inactive are the calls of the source. The calls were made as follows: active = hit-call score of the fitted dose curve at least 0.9, where 1 is the maximum; inactive = score below 0.9.
Outcome codes: active, inactive

# Molecule, Label
records = [
    ("Cc1ccccc1OP(=O)(Oc1ccccc1C)Oc1ccccc1C", "inactive"),
    ("CC(C)N(C(=O)CCl)c1ccccc1", "active"),
    ("OCCCCO", "inactive"),
    ("Cc1ccc(OP(=O)(Oc2ccc(C)cc2C)Oc2ccc(C)cc2C)c(C)c1", "inactive"),
    ("Oc1cc(Cl)c(Cl)cc1Cl", "active"),
    ("O=[N+]([O-])c1cccc2ccccc12", "inactive"),
    ("Nc1ccc(N)cc1", "inactive"),
    ("O=C(O)C1(c2ccc3c(c2)OC[C@H](Cc2ccc(-c4ccccc4)cc2)[C@H]3O)CCCC1", "active"),
    ("CCN(CC)C(=O)C(Cl)=C(C)OP(=O)(OC)OC", "inactive"),
    ("CCOP(=S)(OCC)SCS(=O)(=O)C(C)(C)C", "inactive"),
    ("CCCCCCCCCCCCc1cccc(S(=O)(=O)O)c1", "active"),
    ("Cc1cc(C(C)(C)c2ccc(O)c(C)c2)ccc1O", "active"),
    ("OC(Cc1ccccc1Cl)(Cn1cncn1)C1(Cl)CC1 (stereo not drawn)", "inactive"),
]
